For each entry below, report its inhibition at 1 µM value.
molecular target: ERBB2 (Homo sapiens, UniProt P04626); assay: KINOMEscan competition binding; conditions: read-out: %Inh ERBB2
Sequence (P04626 23-1255): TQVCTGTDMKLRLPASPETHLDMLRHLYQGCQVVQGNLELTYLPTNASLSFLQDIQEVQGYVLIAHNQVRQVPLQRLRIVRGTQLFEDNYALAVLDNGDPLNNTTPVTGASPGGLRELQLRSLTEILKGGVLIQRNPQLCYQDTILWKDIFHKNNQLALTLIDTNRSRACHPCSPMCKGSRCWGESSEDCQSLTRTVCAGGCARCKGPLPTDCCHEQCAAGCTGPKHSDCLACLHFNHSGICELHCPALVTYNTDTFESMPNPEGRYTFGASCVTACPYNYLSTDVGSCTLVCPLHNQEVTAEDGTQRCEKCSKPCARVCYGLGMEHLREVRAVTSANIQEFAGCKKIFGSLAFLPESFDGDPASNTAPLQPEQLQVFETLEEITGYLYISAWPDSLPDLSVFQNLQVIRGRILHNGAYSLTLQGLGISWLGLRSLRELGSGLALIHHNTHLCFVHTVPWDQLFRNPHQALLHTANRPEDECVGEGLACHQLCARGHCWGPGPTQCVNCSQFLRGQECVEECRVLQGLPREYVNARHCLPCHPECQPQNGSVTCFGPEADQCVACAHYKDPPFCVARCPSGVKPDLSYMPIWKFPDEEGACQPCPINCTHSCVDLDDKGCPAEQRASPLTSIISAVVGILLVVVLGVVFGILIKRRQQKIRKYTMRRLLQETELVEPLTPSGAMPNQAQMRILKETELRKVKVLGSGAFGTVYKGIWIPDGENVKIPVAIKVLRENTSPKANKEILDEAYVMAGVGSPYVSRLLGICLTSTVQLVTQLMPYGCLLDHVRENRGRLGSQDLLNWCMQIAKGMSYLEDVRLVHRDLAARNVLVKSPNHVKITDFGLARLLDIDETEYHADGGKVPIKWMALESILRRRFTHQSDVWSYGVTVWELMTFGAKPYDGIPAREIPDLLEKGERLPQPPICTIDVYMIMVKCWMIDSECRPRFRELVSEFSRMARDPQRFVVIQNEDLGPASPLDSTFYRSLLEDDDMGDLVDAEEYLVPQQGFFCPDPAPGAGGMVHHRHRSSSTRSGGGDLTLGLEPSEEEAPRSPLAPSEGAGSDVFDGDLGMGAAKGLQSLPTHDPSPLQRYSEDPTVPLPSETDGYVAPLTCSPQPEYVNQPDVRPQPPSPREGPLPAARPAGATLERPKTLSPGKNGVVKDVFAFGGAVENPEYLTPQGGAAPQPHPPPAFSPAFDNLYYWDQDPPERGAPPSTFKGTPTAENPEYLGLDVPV
Dear colleague, please return just the value in %, with no unit written.

Entry under review: O=c1cc(N2CCOCC2)nc2n(Cc3cccc(Cl)c3Cl)c(C3CC3)nn12 [UNC10225469A] . Reported inhibition at 1 µM?
0

Entry under review: CS(=O)(=O)Cc1ccc(Nc2nccc(-c3c(-c4cccc(NC(=O)C5CCCCC5)c4)nn4ncccc34)n2)cc1 [UNC10225159A] . Reported inhibition at 1 µM?
25

Entry under review: COc1cccc(OC)c1C(=O)Nc1cccc(-c2nn3ccccc3c2-c2ccnc(Nc3cccc(F)c3)n2)c1 [UNC10225310A] . Reported inhibition at 1 µM?
61

Entry under review: Cn1cc(-c2cnc(N)c3c(-c4ccc5c(c4)CCN5C(=O)Cc4ccccc4)csc23)cn1 [UNC10225012A] . Reported inhibition at 1 µM?
0

Entry under review: Cc1ccc(NC(=O)Nc2cccc(C(F)(F)F)c2)cc1 [UNC10225187A] . Reported inhibition at 1 µM?
0

* * *

target: LOK (Homo sapiens, UniProt O94804); test: KINOMEscan competition binding; conditions: read-out: %Inh LOK
Sequence (O94804 whole entry): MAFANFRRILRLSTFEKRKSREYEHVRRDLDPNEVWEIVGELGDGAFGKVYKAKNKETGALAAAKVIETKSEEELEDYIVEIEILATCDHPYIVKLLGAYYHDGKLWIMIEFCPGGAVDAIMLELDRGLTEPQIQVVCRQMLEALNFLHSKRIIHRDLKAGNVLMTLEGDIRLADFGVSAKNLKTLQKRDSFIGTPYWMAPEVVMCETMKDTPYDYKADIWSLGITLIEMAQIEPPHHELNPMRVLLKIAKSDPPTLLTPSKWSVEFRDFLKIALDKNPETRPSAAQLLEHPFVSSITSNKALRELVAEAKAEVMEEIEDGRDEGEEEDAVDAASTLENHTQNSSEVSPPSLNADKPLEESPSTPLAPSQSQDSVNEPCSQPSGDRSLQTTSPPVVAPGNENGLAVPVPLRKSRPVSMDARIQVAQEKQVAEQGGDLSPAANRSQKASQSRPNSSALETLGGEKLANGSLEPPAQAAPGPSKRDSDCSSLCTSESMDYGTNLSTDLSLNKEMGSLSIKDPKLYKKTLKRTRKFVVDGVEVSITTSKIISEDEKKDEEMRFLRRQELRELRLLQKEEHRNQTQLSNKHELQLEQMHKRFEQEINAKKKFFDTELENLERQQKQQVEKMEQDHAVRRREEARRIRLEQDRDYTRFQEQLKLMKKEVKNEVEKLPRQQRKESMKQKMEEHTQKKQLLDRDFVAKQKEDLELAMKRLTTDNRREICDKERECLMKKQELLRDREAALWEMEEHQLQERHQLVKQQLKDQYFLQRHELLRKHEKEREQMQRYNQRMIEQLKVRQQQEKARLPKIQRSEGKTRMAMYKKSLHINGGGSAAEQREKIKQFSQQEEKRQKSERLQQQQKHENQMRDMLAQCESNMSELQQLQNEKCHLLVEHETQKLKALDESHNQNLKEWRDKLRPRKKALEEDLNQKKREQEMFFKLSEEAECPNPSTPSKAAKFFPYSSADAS
For each entry below, report its inhibition at 1 µM value.

Entry under review: CS(=O)(=O)Cc1ccc(Nc2nccc(-c3c(-c4cccc(NC(=O)C5CCCCC5)c4)nn4ncccc34)n2)cc1 [UNC10225159A] . Reported inhibition at 1 µM?
81%

Entry under review: Cn1cc(-c2cnc(N)c3c(-c4ccc5c(c4)CCN5C(=O)Cc4ccccc4)csc23)cn1 [UNC10225012A] . Reported inhibition at 1 µM?
98.9%

Entry under review: COc1cccc(OC)c1C(=O)Nc1cccc(-c2nn3ccccc3c2-c2ccnc(Nc3cccc(F)c3)n2)c1 [UNC10225310A] . Reported inhibition at 1 µM?
90%

Entry under review: Cc1ccc(NC(=O)Nc2cccc(C(F)(F)F)c2)cc1 [UNC10225187A] . Reported inhibition at 1 µM?
0%

Entry under review: O=c1cc(N2CCOCC2)nc2n(Cc3cccc(Cl)c3Cl)c(C3CC3)nn12 [UNC10225469A] . Reported inhibition at 1 µM?
0%

* * *

For each entry below, report its inhibition at 1 µM value.
Target: AXL (Homo sapiens, UniProt P30530)
Sequence (P30530 26-894): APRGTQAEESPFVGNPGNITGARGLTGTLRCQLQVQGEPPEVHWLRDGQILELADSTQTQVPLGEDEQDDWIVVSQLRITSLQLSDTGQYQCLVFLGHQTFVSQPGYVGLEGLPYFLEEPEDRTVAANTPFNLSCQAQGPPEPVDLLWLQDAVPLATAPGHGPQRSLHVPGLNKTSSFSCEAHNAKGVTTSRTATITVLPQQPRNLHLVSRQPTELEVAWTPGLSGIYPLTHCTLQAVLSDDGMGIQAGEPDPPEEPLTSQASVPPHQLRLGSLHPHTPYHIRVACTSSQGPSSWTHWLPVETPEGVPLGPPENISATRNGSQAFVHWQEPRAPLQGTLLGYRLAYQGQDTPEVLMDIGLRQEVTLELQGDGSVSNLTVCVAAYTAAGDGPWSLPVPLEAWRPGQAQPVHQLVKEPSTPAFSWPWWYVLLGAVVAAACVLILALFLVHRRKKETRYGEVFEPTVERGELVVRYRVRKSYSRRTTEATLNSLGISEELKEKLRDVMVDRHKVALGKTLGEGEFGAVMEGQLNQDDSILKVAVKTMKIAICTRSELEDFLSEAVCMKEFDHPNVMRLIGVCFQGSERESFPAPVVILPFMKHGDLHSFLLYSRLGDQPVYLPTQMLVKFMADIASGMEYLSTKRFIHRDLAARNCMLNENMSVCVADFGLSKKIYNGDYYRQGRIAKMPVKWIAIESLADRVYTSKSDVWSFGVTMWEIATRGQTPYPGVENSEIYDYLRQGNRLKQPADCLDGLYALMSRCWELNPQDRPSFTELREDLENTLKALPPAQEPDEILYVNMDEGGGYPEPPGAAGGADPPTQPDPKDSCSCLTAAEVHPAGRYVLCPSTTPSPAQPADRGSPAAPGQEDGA
Assay: KINOMEscan competition binding
Details: read-out: %Inh AXL
Dear colleague, please return just the value in %, with no unit written.

Entry under review: O=c1cc(N2CCOCC2)nc2n(Cc3cccc(Cl)c3Cl)c(C3CC3)nn12 [UNC10225469A] . Reported inhibition at 1 µM?
3

Entry under review: COc1cccc(OC)c1C(=O)Nc1cccc(-c2nn3ccccc3c2-c2ccnc(Nc3cccc(F)c3)n2)c1 [UNC10225310A] . Reported inhibition at 1 µM?
30

Entry under review: Cn1cc(-c2cnc(N)c3c(-c4ccc5c(c4)CCN5C(=O)Cc4ccccc4)csc23)cn1 [UNC10225012A] . Reported inhibition at 1 µM?
95.9

Entry under review: CS(=O)(=O)Cc1ccc(Nc2nccc(-c3c(-c4cccc(NC(=O)C5CCCCC5)c4)nn4ncccc34)n2)cc1 [UNC10225159A] . Reported inhibition at 1 µM?
18

Entry under review: Cc1ccc(NC(=O)Nc2cccc(C(F)(F)F)c2)cc1 [UNC10225187A] . Reported inhibition at 1 µM?
0
